# MEASURED_ON: UniProt:P14618
# METHOD: PKM2 Assay (LDH/NADH-coupled, absorbance at 340 nm)
# Assay type: biochemical
# MEASUREMENT_CONTEXT: wild type PKM2 activation; 60 min preincubation at 25° C.; ADP 0.4 mM, PEP 0.11 mM; read-out: PKM2 WT AC50
Collected AC50 values appear next to each entry.

Check out these entries, answers already filled in.
[Q] Give the reported AC50 for Cn1c2nc(NC(=O)Cc3cc[nH]n3)sc2c2cnn(Cc3cccc4[nH]ncc34)c(=O)c21 (system: UniProt:P14618).
[A] > 800 nM

[Q] Let us now turn to Cn1c2nc(Cc3cc[nH]n3)sc2c2cnn(CCc3cccnc3)c(=O)c21
[A] 301 to 800 nM

[Q] Another: O=c1c2c(cnn1Cc1ccccc1)c1sc(Cc3cc[nH]n3)nc1n2Cc1ccccc1
[A] > 800 nM

[Q] Follow-up item: Cn1c2nc(Cc3cnc(O)nc3)sc2c2cnn(Cc3cccc4[nH]ncc34)c(=O)c21
[A] > 800 nM

[Q] Another molecule: COC(=O)C(c1cc[nH]n1)c1nc2c(s1)c1cnn(Cc3cccc4[nH]ncc34)c(=O)c1n2C (centres unmarked)
[A] > 800 nM

***
[Q] Item Cn1cc(Cc2nc3c(s2)c2cnn(Cc4cccc(C(N)=O)c4)c(=O)c2n3C)cn1 with UniProt:P14618 - AC50?
[A] < 300 nM

[Q] What would you report for Cc1nc2c(s1)c1cnn(Cc3ccc4nn[nH]c4c3)c(=O)c1n2C ?
[A] 301 to 800 nM

[Q] Then this molecule: Cn1c2nc(Cc3cc[nH]n3)sc2c2cnn(Cc3ccc(C(N)=O)cn3)c(=O)c21
[A] 301 to 800 nM

----------
# MEASURED_ON: wild type PKM2 (Homo sapiens)
# Sequence (P14618 whole entry): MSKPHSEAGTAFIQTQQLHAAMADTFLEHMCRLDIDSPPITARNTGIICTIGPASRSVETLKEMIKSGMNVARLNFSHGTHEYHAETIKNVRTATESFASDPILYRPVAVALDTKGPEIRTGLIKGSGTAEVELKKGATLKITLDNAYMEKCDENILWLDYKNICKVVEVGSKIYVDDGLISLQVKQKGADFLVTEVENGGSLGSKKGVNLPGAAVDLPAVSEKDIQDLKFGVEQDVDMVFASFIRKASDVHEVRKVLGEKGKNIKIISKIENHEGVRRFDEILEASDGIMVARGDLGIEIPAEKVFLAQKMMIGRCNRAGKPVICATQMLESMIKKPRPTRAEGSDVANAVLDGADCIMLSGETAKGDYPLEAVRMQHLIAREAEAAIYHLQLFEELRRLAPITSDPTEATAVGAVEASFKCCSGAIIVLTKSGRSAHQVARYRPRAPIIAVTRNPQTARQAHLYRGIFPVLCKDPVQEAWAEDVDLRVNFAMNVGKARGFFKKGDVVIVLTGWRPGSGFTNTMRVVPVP
# METHOD: PKM2 Assay (LDH/NADH-coupled, absorbance at 340 nm)
# Assay type: biochemical
# MEASUREMENT_CONTEXT: wild type PKM2 activation; 60 min preincubation at 25° C.; ADP 0.4 mM, PEP 0.11 mM; read-out: PKM2 WT AC50
This listing pairs compounds with measured AC50.

[Q] Form entry - test system: wild type PKM2 (Homo sapiens); read-out: AC50; compound: Cn1c2nc(Cc3n[nH]cc3F)sc2c2cnn(Cc3cc[nH]n3)c(=O)c21
[A] < 300 nM

[Q] Please give the result for Cc1nc2c(s1)c1cnn(Cc3cccc(F)c3)c(=O)c1n2C too.
[A] < 300 nM

[Q] Cn1c2nc(Cc3cc[nH]n3)sc2c2cnn(Cc3coc(C(N)=O)n3)c(=O)c21 ?
[A] < 300 nM

[Q] Another compound to check: Cn1cc(CC(N)=O)c(Cn2ncc3c4sc(Cc5cc[nH]n5)nc4n(C)c3c2=O)n1
[A] > 800 nM

New cases:
[Q] Record lookup: for wild type PKM2 (Homo sapiens), what AC50 belongs to C=Cc1nc2c(s1)c1cnn(Cc3cccc(OC)c3)c(=O)c1n2C ?
[A] < 300 nM

[Q] Field entry: CCOC(c1cscn1)c1nc2c(s1)c1cnn(Cc3c[nH]nn3)c(=O)c1n2C (stereo not drawn)
[A] > 800 nM

----------
# MEASURED_ON: wild type PKM2 (Homo sapiens)
# METHOD: PKM2 Assay (LDH/NADH-coupled, absorbance at 340 nm)
# Format: biochemical
# MEASUREMENT_CONTEXT: wild type PKM2 activation; 60 min preincubation at 25° C.; ADP 0.4 mM, PEP 0.11 mM; read-out: PKM2 WT AC50
REPORTED_METRIC: AC50

Illustrative cases are given below, each with its answer.
[Q] # value lookup — system wild type PKM2 (Homo sapiens), readout AC50, item Cn1c2nc(Cc3cnn[nH]3)sc2c2cnn(Cc3cccc4[nH]ncc34)c(=O)c21
[A] < 300 nM

[Q] Proceed to Cn1c2nc(Cc3csc(CO)n3)sc2c2cnn(Cc3cc[nH]n3)c(=O)c21
[A] < 300 nM

[Q] Consider next the compound Cc1nc2c(s1)c1cnn(Cc3ccc(CO)cc3)c(=O)c1n2C in the same way.
[A] > 800 nM

[Q] Same thing, different compound: Cn1c2nc(Cc3cc[nH]n3)sc2c2cnn(Cc3n[nH]cc3F)c(=O)c21
[A] < 300 nM

[Q] Again, but for Cc1nc2c(s1)c1cnn(CCO)c(=O)c1n2C
[A] > 800 nM

[Q] Query COc1cccc(Cn2ncc3c4sc(C(=O)c5ccccc5)nc4n(C)c3c2=O)c1 next
[A] < 300 nM

[Q] Record: CC(=O)NC(c1cc[nH]n1)c1nc2c(s1)c1cnn(Cc3cccc4[nH]ncc34)c(=O)c1n2C (centres unmarked)
[A] > 800 nM

Continuing:
[Q] Notebook entry, wild type PKM2 (Homo sapiens) assay: AC50 of Cn1c2nc(Cc3cc[nH]n3)sc2c2cnn(Cc3c[nH]nn3)c(=O)c21 = ?
[A] < 300 nM

Where do the numbers come from? From patent US11872225B2.
